Data credit: PubChem BioAssay AID651581

target: Endothelial PAS domain-containing protein 1 (Homo sapiens) (UniProt Q99814); test: HIF-2a and HIF-1a reporter inhibition panel, dose response, selectivity assay for HIF-2a inhibitor project, cell-based, luminescence (AID 651581); conditions: HIF-2a, run 2
measured.quantity: IC50

Given the entry Nc1ccc(-c2ncc(-c3ccccc3)o2)cc1 , report its measured IC50.
< 1 µM

Entry COc1cccc(/C=N/Nc2ncccc2[N+](=O)[O-])c1OC has what IC50?
< 30 µM

Give the measured IC50 of O=C(Nc1sc2c(c1C(=O)O)CCC2)c1ccccc1Cl .
> 99 µM

Bench note: what IC50 did CC(C)(C)c1ccc(-c2noc(CCC(=O)Nc3cccnc3)n2)cc1 show?
< 1 µM

Reported IC50, compound CN(C)c1ccc(Nc2nc(N)c3ccccc3n2)cc1 : ____
< 30 µM

###

target: Endothelial PAS domain-containing protein 1 (Homo sapiens) (UniProt Q99814); experiment: HIF-2a and HIF-1a reporter inhibition panel, dose response, selectivity assay for HIF-2a inhibitor project, cell-based, luminescence (AID 651581); conditions: HIF-2a PANC, run 1
Reported values of pIC50 for individual entries
// returns pIC50 (minus log10 of molar concentration), number only

| sample.smiles | reported |
| --- | --- |
| O=C(O)c1cccc(COc2ccccc2Cl)c1 | 4.67 |

What does the record list as pIC50 for Cc1nc2cc(-c3cccc(F)c3)nn2c(C)c1CCC(=O)N1CCC2(CC1)OCCO2 ?
5.66

# get_value(readout='pIC50', item= CCOC(=O)c1c(C)nn(-c2ccc(NC(=O)c3c(C)noc3C)cc2)c1C )
4.81

May I ask what pIC50 has been recorded for CCN(CC)S(=O)(=O)c1ccc(NC(=O)c2cccnc2Cl)c(NC(=O)c2cccnc2Cl)c1 ?
4.89

Any idea what pIC50 was measured for Cc1nc2cc(-c3ccccc3)nn2c(C)c1CCC(=O)N1CCC2(CC1)OCCO2 ?
5.58

###

Let's look at some compounds and their measured IC50.
biological target: Endothelial PAS domain-containing protein 1 (Homo sapiens); experiment: HIF-2a and HIF-1a reporter inhibition panel, dose response, selectivity assay for HIF-2a inhibitor project, cell-based, luminescence (AID 651581); settings: HIF-2a, run 2

For orientation, consider the following solved cases.
| sample.smiles | IC50 |
| --- | --- |
| Cc1nn(-c2ccccc2)c(Cl)c1/C=N/Nc1ccc(Cl)c(C(=O)O)c1 | > 99 µM |
| c1c2c(cc3sc(N4CCOCC4)nc13)OCCO2 | < 30 µM |

Look at this compound and give its reported IC50. O=C(Nc1ccc(NC(=O)c2cccs2)cc1)c1ccc2c(c1)OCCO2
> 99 µM

###

target: Endothelial PAS domain-containing protein 1 (Homo sapiens) (UniProt Q99814); experiment: HIF-2a and HIF-1a reporter inhibition panel, dose response, selectivity assay for HIF-2a inhibitor project, cell-based, luminescence (AID 651581); conditions: HIF-2a PANC, run 2
IC50 listing for selected molecules.

| molecule | IC50 |
| --- | --- |
| CCOC(=O)c1sc(NC(=O)c2cc3c(s2)CCC(C)C3)nc1C (stereo not given) | > 99 µM |

Kindly review the next molecule as well.
Need IC50 of N#Cc1c(NC(=O)CSc2ncn[nH]2)sc2c1CCCCC2 , thanks.
< 10 µM
